PBM binding z-score values for the sequences below.
- Test system: PPARg homodimer (NR concentration 180 nM)
- TEST: PBM binding z-score (relative to random genomic background probes); higher = stronger binding; sequences stand for … in GC…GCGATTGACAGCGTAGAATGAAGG
Just the number.

In the examples that follow, each entry is paired with its recorded PBM binding z-score.
INSERT INTO results (biopolymer_sequence, recorded_metric, recorded_result) VALUES
  ('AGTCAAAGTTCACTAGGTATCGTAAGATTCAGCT', 'PBM binding z-score', 2.46),
  ('CAAACTGGGTCACAGAGGTCAAAGTCCGTGCGTA', 'PBM binding z-score', 3.96);

// below: PBM binding z-score requested for another sequence
For this sequence ( "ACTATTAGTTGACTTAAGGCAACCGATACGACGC" ), measured PBM binding z-score is 0.0202
